The next entries give measured pKi for Carbonic anhydrase 2 (Homo sapiens).
A value of pKi is the negative decimal logarithm of a concentration given in moles per litre.

*Q* Entry NS(=O)(=O)c1ccc(CCN(Cc2ccco2)C(=O)CN(CCC(=O)O)CCc2ccccc2)cc1 has what pKi?
*A* 8.62

====

species on record: Homo sapiens; assay: Selectivity index, ratio of Ki for inhibition of human CA4 to Ki for inhibition of human CA12
property: Ratio Ki
The answer should be written as a number, with no unit following it.

Recorded Ratio Ki, per entry:
| line.notation | Ratio Ki |
| --- | --- |
| NCCCN(CCc1ccccc1)CC(=O)N(CCc1ccc(S(N)(=O)=O)cc1)Cc1ccc(F)cc1 | 609 |
| N#CCCN(CCc1ccccc1)CC(=O)N(CCc1ccc(S(N)(=O)=O)cc1)Cc1ccc(F)cc1 | 422 |

*Q* Entry NCCCN(CCc1ccccc1)CC(=O)N(CCc1ccc(S(N)(=O)=O)cc1)Cc1ccc2ccccc2c1 has what Ratio Ki?
*A* 78

*Q* Entry CCCCCCCC/C=C\CCCCCCCCNC(=O)CCN(CCc1ccccc1)CC(=O)N(CCc1ccc(S(N)(=O)=O)cc1)Cc1ccco1 has what Ratio Ki?
*A* 329

*Q* Entry N#CCCN(CCc1ccccc1)CC(=O)N(CCC#N)CCc1ccc(S(N)(=O)=O)cc1 has what Ratio Ki?
*A* 81.6

Data origin: ChEMBL document CHEMBL4613327
